Readings of Activity for the listed molecules
target: Cannabinoid receptor 2 (Homo sapiens)
assay.protocol: Inverse agonist activity at human CB2 receptor expressed in CHO cell membrane assessed as increase in forskolin-stimulated cAMP production at 1 uM by scintillation counting analysis relative to WIN55212-2
Quick reminder: number only, in %, skip the unit.

Below, 5 molecules whose answers are already recorded.
structure.smiles.string: CCCCCn1cc(C(=O)NC23CC4CC(CC(C4)C2)C3)c(=O)n2nc(C)c(Br)c12
unit.of.measure: %
Activity: 32
//
structure.smiles.string: CCCCCn1cc(C(=O)NC2CCCCC2)c(=O)n2nc(CC)cc12
unit.of.measure: %
Activity: 121
//
structure.smiles.string: CCCCCn1cc(C(=O)NC2CCCCCC2)c(=O)n2nc(C(C)(C)C)cc12
unit.of.measure: %
Activity: 151
//
structure.smiles.string: CCCCCn1cc(C(=O)NC23CC4CC(CC(C4)C2)C3)c(=O)n2nc(C(C)(C)C)cc12
unit.of.measure: %
Activity: 114
//
structure.smiles.string: CCCCCn1cc(C(=O)NC23CC4CC(CC(C4)C2)C3)c(=O)n2nc(-c3ccc(C)s3)cc12
unit.of.measure: %
Activity: 38

Record lookup: for Cannabinoid receptor 2 (Homo sapiens), what Activity belongs to "CCCCCn1cc(C(=O)NC2CCCCC2)c(=O)n2nc(C(C)(C)C)cc12" ?
85

Record "CCCCCn1cc(C(=O)NC23CC4CC(CC(C4)C2)C3)c(=O)n2nc(-c3ccc(Cl)cc3Cl)cc12" : what is its Activity with Cannabinoid receptor 2 (Homo sapiens)?
87

Param readout= Activity; system= Cannabinoid receptor 2 (Homo sapiens); entry= "CCCCCn1cc(C(=O)NC2CCCCC2)c(=O)n2nc(-c3ccc(C)cc3)cc12" ; returns value.
63

# query: Activity | item "CCCCCn1cc(C(=O)NC23CC4CC(CC(C4)C2)C3)c(=O)n2nc(-c3cc(C)cs3)cc12" | system: Cannabinoid receptor 2 (Homo sapiens)
71

// fetch Cannabinoid receptor 2 (Homo sapiens) Activity for "CCCCCn1cc(C(=O)NC2CCCCC2)c(=O)n2nc(-c3ccccc3C)cc12"
73

Given the entry "CCCCCn1cc(C(=O)NCc2ccccc2)c(=O)n2nc(C)cc12" , what Activity was observed with Cannabinoid receptor 2 (Homo sapiens)?
38

---

target: Cannabinoid receptor 2 (Homo sapiens, UniProt P34972)
Sequence (P34972 whole entry): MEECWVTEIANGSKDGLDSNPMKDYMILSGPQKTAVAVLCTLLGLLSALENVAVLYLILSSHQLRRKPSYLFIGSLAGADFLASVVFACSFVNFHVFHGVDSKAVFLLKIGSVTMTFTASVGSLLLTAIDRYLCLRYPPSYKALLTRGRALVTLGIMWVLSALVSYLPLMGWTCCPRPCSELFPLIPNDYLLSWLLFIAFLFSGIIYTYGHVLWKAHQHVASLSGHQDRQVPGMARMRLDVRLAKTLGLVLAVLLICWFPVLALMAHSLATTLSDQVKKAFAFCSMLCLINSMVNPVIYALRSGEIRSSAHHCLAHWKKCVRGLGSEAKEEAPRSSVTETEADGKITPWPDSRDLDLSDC
assay.protocol: Displacement of [3H]CP-55940 from human CB2 receptor expressed in CHO cell membrane after 60 mins by scintillation counting analysis
Type: cell membranes
pKi: −log10 of the molar value.
Classify as follows. Reported pKi greater than or equal to 8: 1.0. Reported pKi below: 0.0.

Record excerpt, results attached:
structure.smiles.string: CCCCCn1cc(C(=O)NC2CCCCC2)c(=O)n2nc(C)cc12
assigned.category: 0.0
--
structure.smiles.string: CCCCCn1cc(C(=O)NC23CC4CC(CC(C4)C2)C3)c(=O)n2nc(C(C)(C)C)cc12
assigned.category: 1.0
--
structure.smiles.string: CCCCCn1cc(C(=O)NC2CCCCC2)c(=O)n2nc(-c3ccc(C)cc3)cc12
assigned.category: 0.0
--
structure.smiles.string: CCCCCn1cc(C(=O)NC23CC4CC(CC(C4)C2)C3)c(=O)n2nc(C)c(Br)c12
assigned.category: 0.0
--
structure.smiles.string: CCCCCn1cc(C(=O)NC23CC4CC(CC(C4)C2)C3)c(=O)n2nc(-c3ccc(Cl)cc3Cl)cc12
assigned.category: 0.0
--
structure.smiles.string: CCCCCn1cc(C(=O)NC23CC4CC(CC(C4)C2)C3)c(=O)n2nc(CC)cc12
assigned.category: 1.0
--
structure.smiles.string: CCCCCn1cc(C(=O)NC2CCCCC2)c(=O)n2nc(-c3ccccc3C)cc12
assigned.category: 0.0
--
structure.smiles.string: CCCCCn1cc(C(=O)NC2CCCCCC2)c(=O)n2nc(-c3ccc(Cl)cc3Cl)cc12
assigned.category: 0.0

Form field: pKi at least 8? Entry: "CCCCCn1cc(C(=O)NC2CCCCCC2)c(=O)n2nc(CC)cc12"
1.0

Could you tell me if the measured pKi of "CCCCCn1cc(C(=O)NC23CC4CC(CC(C4)C2)C3)c(=O)n2nc(-c3ccc(Cl)cc3)cc12" reaches 8 or more?
1.0

Does the reported pKi for "CCCCCn1cc(C(=O)NC2CCCCC2)c(=O)n2nc(-c3ccc(Cl)cc3)cc12" fall at or above the 8 mark?
0.0
